Exercise: for every item that follows, state its recorded protein stability index.
B1: APBB1IP (parent)
chain: SQVSMWDQRWQDHQPLLPITDVP

# Variants of: B1
# assay-procedure: protein stability index of a GFP-peptide fusion (GPS, HEK-293T) (PSI 1-6); higher = more stable;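 also: lentivirally expressed fusions sorted by FACS into six bins by GFP to DsRed ratio, PSI derived from sequencing read proportions per bin multiplied by bin number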
# measurement-conditions: c terminus: native
Give bare numbers.

Illustrative cases are given below, each with its answer.
In [3]: df
Out[3]:
   variant_key  recorded_value
0         D12I            1.75
1         D12A            2.31
2         W10F            2.31
3         P18F            1.36
4          M5S             2.5
5         P23F            2.21

For each of the variants below, state protein stability index.
1. T20G
2. I19C
3. H13L
4. I19Y
5. W6V
6. Q8I
7. Q11T

[1.77, 2.15, 1.95, 2.84, 3.01, 1.94, 2.29]
